target: hGLP-1R (Homo sapiens, UniProt P43220)
Sequence (P43220 24-463): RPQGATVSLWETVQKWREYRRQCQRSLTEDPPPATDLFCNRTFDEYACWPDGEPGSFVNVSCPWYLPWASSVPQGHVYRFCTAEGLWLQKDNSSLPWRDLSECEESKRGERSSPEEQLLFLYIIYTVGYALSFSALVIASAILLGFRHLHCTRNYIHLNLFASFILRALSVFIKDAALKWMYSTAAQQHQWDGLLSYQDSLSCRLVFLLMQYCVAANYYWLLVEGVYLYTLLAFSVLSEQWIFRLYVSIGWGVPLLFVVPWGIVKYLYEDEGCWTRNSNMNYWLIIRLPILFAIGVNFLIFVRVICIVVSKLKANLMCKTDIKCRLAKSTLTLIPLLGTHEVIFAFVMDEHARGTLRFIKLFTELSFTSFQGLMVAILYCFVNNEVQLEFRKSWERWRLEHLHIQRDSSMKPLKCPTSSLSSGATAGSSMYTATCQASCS
test-protocol: cell-based or functional assay
Please go through the items and note down their Relative cAMP EC50.
Give the quantity in nM, number only.

Form: binder = YXQGTFTSDFSKXLDKKAQXAFIEYLLEGAPSSGAPPPSEG (synthetic construct; SITE 2: note = 2-Aminoisobutyric Acid; SITE 13: note = alpha-methyl-leucine; SITE 17: note = Lysine is chemically modified through conjugation of the epsilon-amino group of the Lysine side chain with (2-[2-(2-Amino-ethoxy)-ethoxy]-acetyl)-(gamma-Glu)-CO-(CH2) 18-CO2H; SITE 20: n) [Example 47] ; Relative cAMP EC50 = 3.4

Form: binder = YXQGTFTSDXSQXLDKKAQXAFIEXLLEGGPSSGAPPPSGS (synthetic construct; SITE 2: note = 2-Aminoisobutyric Acid; SITE 10: note = 3-(4-Pyridyl)-L-alanine; SITE 13: note = alpha-methyl-leucine; SITE 17: note = Lysine is chemically modified through conjugation of the epsilon-amino group of the Lysine side chain with (gamma-Glu)2-CO-(CH2)16-CO2H; SITE 20:) [Example 938] ; Relative cAMP EC50 = 1.84

Form: binder = YXQGTFTSDXSRXLDKKAQXAFIEYLIEXGESSGAPPPSGE (non-natural residues, AEEA-γGlu-C18 diacid acyl on K, C-terminal amide; synthetic construct; SITE 2: note = 2-Aminoisobutyric Acid; SITE 10: note = 3-(4-Pyridyl)-L-alanine; SITE 13: note = alpha-methyl-leucine; SITE 17: note = Lysine is chemically modified through conjugation of the epsilon-amino group of the Lysine side chain with (2-[2-(2-Amino-ethoxy)-ethoxy]-acetyl)) [Example 225] ; Relative cAMP EC50 = 2.44

Form: binder = YXQGTFTSDFSRXLDKKAQXAFIEYLLEGGPSSGAPPPSGS (synthetic construct; SITE 2: note = 2-Aminoisobutyric Acid; SITE 13: note = alpha-methyl-leucine; SITE 17: note = Lysine is chemically modified through conjugation of the epsilon-amino group of the Lysine side chain with (2-[2-(2-Amino-ethoxy)-ethoxy]-acetyl)2-(gamma-Glu)-CO-(CH2 )16-CO2H; SITE 20:) [Example 144] ; Relative cAMP EC50 = 4.02

Form: binder = YXQGTFTSDFSQXLDKKAQXAFIEYLLEXGESSGAPPPSGE (synthetic construct; SITE 2: note = 2-Aminoisobutyric Acid; SITE 13: note = alpha-methyl-leucine; SITE 17: note = Lysine is chemically modified through conjugation of the epsilon-amino group of the Lysine side chain with (2-[2-(2-Amino-ethoxy)-ethoxy]-acetyl)-(gamma-Glu)-CO-(CH2) 16-CO2H; SITE 20: n) [Example 789] ; Relative cAMP EC50 = 2.74

# credit: patent US20240270821A1
